Molecular target: recombinant Axl tyrosine kinase (Homo sapiens, UniProt P30530)
Construct: encompassing amino acids 473 to 894 of Axl; GST (N); made in house; host or cells: SF126 insect cells
Sequence (P30530 473-894): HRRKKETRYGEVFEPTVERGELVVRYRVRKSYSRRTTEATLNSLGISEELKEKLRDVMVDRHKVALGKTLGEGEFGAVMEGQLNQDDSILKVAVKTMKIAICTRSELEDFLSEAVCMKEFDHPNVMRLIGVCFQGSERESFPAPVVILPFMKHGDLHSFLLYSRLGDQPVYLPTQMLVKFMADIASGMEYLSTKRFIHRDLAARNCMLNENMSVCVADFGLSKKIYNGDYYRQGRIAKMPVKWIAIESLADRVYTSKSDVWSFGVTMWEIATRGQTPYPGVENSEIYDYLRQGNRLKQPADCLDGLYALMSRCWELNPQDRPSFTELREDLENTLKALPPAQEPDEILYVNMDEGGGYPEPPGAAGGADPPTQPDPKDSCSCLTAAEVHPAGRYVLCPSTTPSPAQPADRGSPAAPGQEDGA
Assay: In vitro Axl kinase assay (AlphaScreen), Test (a)
Format: biochemical
Details: test compound at 1 μM; first value quoted
measured parameter: % Axl tyrosine kinase inhibition at 1 μM concentration (%)

[
  {
    "molecule": "CC(=O)NCCC(=O)N1CCC(n2cc(-c3cnc(N)c(-c4nc5cccnc5o4)c3)cn2)CC1 [Example 59.11]",
    "measured": 99.0
  },
  {
    "molecule": "COc1cc(-c2cnc(N)c(-c3nc4ncccc4o3)c2)ccc1OC1CCN(C)CC1 [Example 43C.11]",
    "measured": 98.9
  },
  {
    "molecule": "CN(C)CCN(C)C(=O)c1ccc(-c2cnc(N)c(-c3nc4cccnc4o3)c2)cc1 [Example 45A.48]",
    "measured": 98.3
  },
  {
    "molecule": "CN1CCC(n2cc(-c3cnc(N)c(-c4nc5cc(C(F)(F)F)ccc5o4)c3)cn2)CC1 [Example 7.11]",
    "measured": 98.1
  },
  {
    "molecule": "NC(=O)CCN1CCN(C(=O)c2ccc(-c3cnc(N)c(-c4nc5cccnc5o4)c3)cc2)CC1 [Example 45A.71]",
    "measured": 93.7
  },
  {
    "molecule": "COCc1nn(C2CCNCC2)cc1-c1cnc(N)c(-c2nc3c(F)cccc3o2)c1 [Example 62.7]",
    "measured": 100.0
  },
  {
    "molecule": "Nc1ncc(-c2ccc(OCCN3CCCC3)cc2)cc1-c1nc2cccnc2o1 [Example 43A.3]",
    "measured": 98.7
  },
  {
    "molecule": "CNCCN(C)C(=O)c1ccc(-c2cnc(N)c(-c3nc4cccnc4o3)c2)cc1 [Example 45A.85]",
    "measured": 99.8
  },
  {
    "molecule": "Nc1ncc(-c2cnn(C3CCN(C(=O)CO)CC3)c2)cc1-c1nc2ccccc2o1 [Example 34.2]",
    "measured": 100.0
  }
]

---

Target: recombinant Axl tyrosine kinase (Homo sapiens, UniProt P30530)
Construct: encompassing amino acids 473 to 894 of Axl; GST (N); made in house; host or cells: SF126 insect cells
Sequence (P30530 473-894): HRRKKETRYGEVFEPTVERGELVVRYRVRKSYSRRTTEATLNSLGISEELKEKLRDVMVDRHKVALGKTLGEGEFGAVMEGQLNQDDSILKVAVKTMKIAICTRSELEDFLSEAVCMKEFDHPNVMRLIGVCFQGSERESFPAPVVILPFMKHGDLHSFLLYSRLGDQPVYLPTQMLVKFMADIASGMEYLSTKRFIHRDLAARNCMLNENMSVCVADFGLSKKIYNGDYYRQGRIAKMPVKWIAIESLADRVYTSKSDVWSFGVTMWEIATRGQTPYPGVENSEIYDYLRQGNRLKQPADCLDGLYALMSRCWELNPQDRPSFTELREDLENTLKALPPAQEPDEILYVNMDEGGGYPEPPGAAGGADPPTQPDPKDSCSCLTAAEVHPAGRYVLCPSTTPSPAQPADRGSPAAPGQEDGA
Assay: In vitro Axl kinase assay (AlphaScreen), Test (a)
Assay type: biochemical
Conditions: test compound at 1 μM; first value quoted
measured parameter: % Axl tyrosine kinase inhibition at 1 μM concentration (%)

[
  {
    "molecule": "COc1cc(-c2cnc(N)c(-c3nc4ncccc4o3)c2)ccc1OCCN1CCCC1 [Example 43C.5]",
    "tgt": "recombinant Axl tyrosine kinase (Homo sapiens, UniProt P30530)",
    "measured": 99.7
  },
  {
    "molecule": "Nc1ncc(-c2ccc(C(=O)N3CCCC3CN3CCCCCC3)cc2)cc1-c1nc2cccnc2o1 (stereo not shown) [Example 45A.17]",
    "tgt": "recombinant Axl tyrosine kinase (Homo sapiens, UniProt P30530)",
    "measured": 99.6
  },
  {
    "molecule": "COc1cc(-c2cnc(N)c(-c3nc4ncccc4o3)c2)ccc1N1CCNCC1 [Example 25.8]",
    "tgt": "recombinant Axl tyrosine kinase (Homo sapiens, UniProt P30530)",
    "measured": 99.8
  },
  {
    "molecule": "COc1cc(-c2cnc(N)c(-c3nc4ncccc4o3)c2)ccc1OC[C@H]1CCCN1 [Example 43C.24]",
    "tgt": "recombinant Axl tyrosine kinase (Homo sapiens, UniProt P30530)",
    "measured": 99.6
  },
  {
    "molecule": "CN1CCC(n2cc(-c3cnc(N)c(-c4nc5c(F)cccc5o4)c3)c(CO)n2)CC1 [Example 41.32]",
    "tgt": "recombinant Axl tyrosine kinase (Homo sapiens, UniProt P30530)",
    "measured": 100.0
  },
  {
    "molecule": "CCN1CCC(CNC(=O)c2ccc(-c3cnc(N)c(-c4nc5cccnc5o4)c3)cc2)CC1 [Example 45A.47]",
    "tgt": "recombinant Axl tyrosine kinase (Homo sapiens, UniProt P30530)",
    "measured": 96.1
  },
  {
    "molecule": "Nc1ncc(-c2ccc(C(=O)N3CCC(N)CC3)cc2)cc1-c1nc2cccnc2o1 [Example 45A.107]",
    "tgt": "recombinant Axl tyrosine kinase (Homo sapiens, UniProt P30530)",
    "measured": 95.0
  },
  {
    "molecule": "CN(C)CCCCNC(=O)c1ccc(-c2cnc(N)c(-c3nc4cccnc4o3)c2)cc1 [Example 45A.2]",
    "tgt": "recombinant Axl tyrosine kinase (Homo sapiens, UniProt P30530)",
    "measured": 96.6
  },
  {
    "molecule": "Nc1ncc(-c2ccc(C(=O)NCCO)cc2)cc1-c1nc2ncccc2o1 [Example 10A.5]",
    "tgt": "recombinant Axl tyrosine kinase (Homo sapiens, UniProt P30530)",
    "measured": 91.4
  },
  {
    "molecule": "CN1CCC(Oc2ccc(-c3cnc(N)c(-c4nc5ncccc5o4)c3)cc2)CC1 [Example 43B.11]",
    "tgt": "recombinant Axl tyrosine kinase (Homo sapiens, UniProt P30530)",
    "measured": 98.1
  },
  {
    "molecule": "Nc1ncc(-c2ccc(C(=O)N3CCN(Cc4ccncc4)CC3)cc2)cc1-c1nc2cccnc2o1 [Example 45A.62]",
    "tgt": "recombinant Axl tyrosine kinase (Homo sapiens, UniProt P30530)",
    "measured": 97.3
  },
  {
    "molecule": "Nc1ncc(-c2ccc(OCC#CCN3CCS(=O)(=O)CC3)cc2)cc1-c1nc2ncccc2o1 [Example 43B.23]",
    "tgt": "recombinant Axl tyrosine kinase (Homo sapiens, UniProt P30530)",
    "measured": 95.3
  }
]
